All values here come from patent US6815546B2.

Tested on: L1210 (mouse lymphocytic leukemia)
Test: Test on cell proliferation (MTT test), L1210
Format: cell-based
Settings: 1 000 nM, 48 hours
Sorting guide: entries reporting PERCENTAGE OF CELL PROLIFERATION beneath 30% go in the T pile, the rest go in the F pile.

Would you please look over these solved cases?
compound="CCc1c2c(nc3ccccc13)-c1cc3c(c(=O)n1C2)COC(=O)CC3(O)CC (centres unmarked)" assignedcategory=T
compound="CCC(O)(CC(=O)O)c1cc2n(c(=O)c1CO)Cc1cc3ccccc3nc1-2 (centres unmarked)" assignedcategory=F
compound="CCc1c2c(nc3ccccc13)-c1cc(C(O)(CC)CC(=O)O)c(CO)c(=O)n1C2 (centres unmarked)" assignedcategory=F
compound="CCC1(O)CC(=O)OCc2c1cc1n(c2=O)Cc2cc3ccccc3nc2-1 (centres unmarked)" assignedcategory=T

Now for another entry.
q: Find out if reported PERCENTAGE OF CELL PROLIFERATION for CCC1(O)CC(=O)OCc2c1cc1n(c2=O)Cc2cc3cc4c(cc3nc2-1)OCCO4 (centres unmarked) is less than 30%
a: T

====

Target: DNA topoisomerase 1 of purified calf thymus (Bos taurus)
Construct: DNA topoisomerase 1 of purified calf thymus (Gibco-BRL, Paisley, United Kingdom); purchased Gibco-BRL, Paisley, United Kingdom; host or cells: calf thymus tissue
Sequence (F1MN93 1-767): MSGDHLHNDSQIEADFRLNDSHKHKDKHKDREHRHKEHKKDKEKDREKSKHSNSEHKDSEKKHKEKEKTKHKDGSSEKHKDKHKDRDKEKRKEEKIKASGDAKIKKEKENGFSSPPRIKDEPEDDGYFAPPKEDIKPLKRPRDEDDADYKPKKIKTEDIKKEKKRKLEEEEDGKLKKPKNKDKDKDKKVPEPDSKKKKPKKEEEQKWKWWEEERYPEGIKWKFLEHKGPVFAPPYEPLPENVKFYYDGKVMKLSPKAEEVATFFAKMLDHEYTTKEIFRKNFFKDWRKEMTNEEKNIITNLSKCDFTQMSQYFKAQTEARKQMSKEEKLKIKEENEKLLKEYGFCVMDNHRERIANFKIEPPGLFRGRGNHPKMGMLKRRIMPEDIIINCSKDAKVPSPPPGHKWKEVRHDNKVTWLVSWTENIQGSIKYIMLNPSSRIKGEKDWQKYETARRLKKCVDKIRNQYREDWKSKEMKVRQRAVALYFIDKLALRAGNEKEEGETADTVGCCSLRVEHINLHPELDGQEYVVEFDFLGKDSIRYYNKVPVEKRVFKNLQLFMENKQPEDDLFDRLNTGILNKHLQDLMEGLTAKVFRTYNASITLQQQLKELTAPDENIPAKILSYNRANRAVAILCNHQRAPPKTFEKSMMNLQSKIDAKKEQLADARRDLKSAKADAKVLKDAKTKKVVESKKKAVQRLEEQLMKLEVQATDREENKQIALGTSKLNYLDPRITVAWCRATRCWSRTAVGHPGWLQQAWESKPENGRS
Assay: Relaxation activity test of DNA induced by topoisomerase 1
Type: biochemical
Conditions: 500 μM compound; supercoiled pUC19; 15 minutes at 37° C.
valueKind: PERCENTAGE OF RELAXED DNA (%)
Kindly provide the numeric value in % only, without the unit symbol.

Before answering, review these 2 worked examples.
molecule="CCC1(O)CC(=O)OCc2c1cc1n(c2=O)Cc2cc3ccccc3nc2-1 (stereo not drawn)" unitdescriptor=% recordedresult=45.7
molecule="CCOC(=O)CC(O)(CC)c1cc2n(c(=O)c1CO)Cc1cc3ccccc3nc1-2 (stereo not drawn)" unitdescriptor=% recordedresult=51.1

q: PERCENTAGE OF RELAXED DNA lookup needed for CCC(O)(CC(=O)O)c1cc2n(c(=O)c1CO)Cc1cc3ccccc3nc1-2 (stereo not drawn) , thanks.
a: 32.9

====

System: HCT15 (cell lines of human colon adenocarcinoma)
Assay: Test on cell proliferation (MTT test), HCT15
Format: cell-based
Settings: 100 nM, 72 hours
Define the label as Yes when PERCENTAGE OF CELL PROLIFERATION is strictly less than 60% and as No in all remaining cases.

molecule="CCc1c2c(nc3ccccc13)-c1cc(C(O)(CC)CC(=O)O)c(CO)c(=O)n1C2 (centres unmarked)" assignedcategory=No
molecule="CCc1c2c(nc3ccccc13)-c1cc3c(c(=O)n1C2)COC(=O)CC3(O)CC (centres unmarked)" assignedcategory=Yes
molecule="CCC1(O)CC(=O)OCc2c1cc1n(c2=O)Cc2cc3cc4c(cc3nc2-1)OCCO4 (centres unmarked)" assignedcategory=Yes

q: Lab log: compare recorded PERCENTAGE OF CELL PROLIFERATION with 60%; is it strictly lower for CCC1(O)CC(=O)OCc2c1cc1n(c2=O)Cc2cc3ccccc3nc2-1 (centres unmarked) ?
a: Yes

q: API: query returns whether the molecule falls strictly under 60% in PERCENTAGE OF CELL PROLIFERATION. Query: CCC(O)(CC(=O)O)c1cc2n(c(=O)c1CO)Cc1cc3ccccc3nc1-2 (centres unmarked)
a: No

====

Test system: Adenocarcinoma HT29 cells from the human colon
Test: Adenocarcinoma HT29 cell proliferation, WST1 (compounds in DMA)
Type: cell-based
Settings: 72 hours, final DMA 0.1% (v/v)
valueKind: IC50 (nM)
Give just the number in nM; leave the unit off.

Below are worked cases with known answers.
compound="CC[C@@]1(O)CC(=O)OCc2c1cc1n(c2=O)Cc2c-1nc1cc(F)ccc1c2CC(C)(C)C [Example 163]" recordedresult=6
compound="CCOCCc1c2c(nc3cc(F)cc(F)c13)-c1cc3c(c(=O)n1C2)COC(=O)C[C@]3(O)CC [Example 170]" recordedresult=0.85
compound="CCCc1c2c(nc3cc(F)cc(F)c13)-c1cc3c(c(=O)n1C2)COC(=O)C[C@]3(O)CC [Example 169]" recordedresult=2.3
compound="CC[C@@]1(O)CC(=O)OCc2c1cc1n(c2=O)Cc2c-1nc1ccccc1c2Cl [Example 160]" recordedresult=5.5
compound="CC[C@@]1(O)CC(=O)OCc2c1cc1n(c2=O)Cc2c-1nc1cc(F)ccc1c2-c1cccc(F)c1 [Example 164]" recordedresult=2.7

q: Record lookup: for Adenocarcinoma HT29 cells from the human colon, what IC50 belongs to CC[C@@]1(O)CC(=O)OCc2c1cc1n(c2=O)Cc2c-1nc1cc(F)ccc1c2-c1ccc(OC(F)(F)F)cc1 [Example 166] ?
a: 8.9

q: Reported IC50 for Adenocarcinoma HT29 cells from the human colon, given CC[C@@]1(O)CC(=O)OCc2c1cc1n(c2=O)Cc2cc3c(F)c(F)c(F)cc3nc2-1 [Example 171] ?
a: 8.2

====

Target: DNA topoisomerase 1 of purified calf thymus (Bos taurus, UniProt F1MN93)
Construct: DNA topoisomerase 1 of purified calf thymus (Gibco-BRL, Paisley, United Kingdom); purchased Gibco-BRL, Paisley, United Kingdom; host or cells: calf thymus tissue
Sequence (F1MN93 1-767): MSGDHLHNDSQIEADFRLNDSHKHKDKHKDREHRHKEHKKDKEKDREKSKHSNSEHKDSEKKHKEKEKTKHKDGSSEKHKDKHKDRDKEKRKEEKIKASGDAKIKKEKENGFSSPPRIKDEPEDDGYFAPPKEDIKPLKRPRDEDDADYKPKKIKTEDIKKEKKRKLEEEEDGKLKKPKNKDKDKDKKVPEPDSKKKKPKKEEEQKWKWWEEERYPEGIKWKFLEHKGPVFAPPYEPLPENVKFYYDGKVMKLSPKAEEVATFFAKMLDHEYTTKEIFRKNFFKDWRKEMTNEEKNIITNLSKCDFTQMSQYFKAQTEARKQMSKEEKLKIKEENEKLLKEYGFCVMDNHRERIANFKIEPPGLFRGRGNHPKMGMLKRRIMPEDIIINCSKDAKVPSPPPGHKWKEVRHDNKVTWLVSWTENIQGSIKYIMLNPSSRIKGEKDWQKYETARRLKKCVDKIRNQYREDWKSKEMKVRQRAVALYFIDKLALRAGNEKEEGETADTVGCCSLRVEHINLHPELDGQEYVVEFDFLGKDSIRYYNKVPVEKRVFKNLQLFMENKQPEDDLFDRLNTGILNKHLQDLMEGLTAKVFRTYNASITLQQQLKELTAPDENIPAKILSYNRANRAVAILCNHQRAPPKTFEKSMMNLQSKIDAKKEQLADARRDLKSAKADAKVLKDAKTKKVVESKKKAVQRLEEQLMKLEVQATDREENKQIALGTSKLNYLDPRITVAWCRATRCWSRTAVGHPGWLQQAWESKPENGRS
Assay: Relaxation activity test of DNA induced by topoisomerase 1
Format: biochemical
Conditions: 100 μM compound; supercoiled pUC19; 15 minutes at 37° C.
valueKind: PERCENTAGE OF RELAXED DNA (%)
Number only, in %; omit the unit.

Take a look at these entries with their results.
compound="CCC1(O)CC(=O)OCc2c1cc1n(c2=O)Cc2cc3cc4c(cc3nc2-1)OCCO4 (stereo not drawn) [Example 11]" target="DNA topoisomerase 1 of purified calf thymus (Bos taurus, UniProt F1MN93)" valuekind="PERCENTAGE OF RELAXED DNA" unitdescriptor=% recordedresult=50.3
compound="CCc1c2c(nc3ccccc13)-c1cc(C(O)(CC)CC(=O)O)c(CO)c(=O)n1C2 (stereo not drawn) [Example 10]" target="DNA topoisomerase 1 of purified calf thymus (Bos taurus, UniProt F1MN93)" valuekind="PERCENTAGE OF RELAXED DNA" unitdescriptor=% recordedresult=45.4
compound="CCN1COc2ccc3nc4c(cc3c2C1)Cn1c-4cc2c(c1=O)COC(=O)CC2(O)CC (stereo not drawn) [Example 76]" target="DNA topoisomerase 1 of purified calf thymus (Bos taurus, UniProt F1MN93)" valuekind="PERCENTAGE OF RELAXED DNA" unitdescriptor=% recordedresult=33.5
compound="CCC(O)(CC(=O)O)c1cc2n(c(=O)c1CO)Cc1cc3ccccc3nc1-2 (stereo not drawn) [Example 4]" target="DNA topoisomerase 1 of purified calf thymus (Bos taurus, UniProt F1MN93)" valuekind="PERCENTAGE OF RELAXED DNA" unitdescriptor=% recordedresult=82.2
compound="CCC1(O)CC(=O)OCc2c1cc1n(c2=O)Cc2cc3c4c(ccc3nc2-1)OCN(Cc1ccccc1)C4 (stereo not drawn) [Example 78]" target="DNA topoisomerase 1 of purified calf thymus (Bos taurus, UniProt F1MN93)" valuekind="PERCENTAGE OF RELAXED DNA" unitdescriptor=% recordedresult=28.0

# next compound below
q: Item CCC1(O)CC(=O)OCc2c1cc1n(c2=O)Cc2cc3c4c(ccc3nc2-1)OCN(C)C4 (stereo not drawn) [Example 77] has what recorded PERCENTAGE OF RELAXED DNA?
a: 35.1
